Test system: Saccharomyces cerevisiae
Test: protein stability index of tFT-peptide fusion (C-terminal peptide) (PSI (0-1 scale)); higher = more stable (slower turnover)
Conditions: genetic background: das1 deletion; temperature: 30 C
PARAMETER_MEASURED: protein stability index

{"CONSTRUCT_SEQUENCE": "SVFIAAVAAMLI [CCW14 C-terminal 12 aa]", "OBSERVED": 0.603}
{"CONSTRUCT_SEQUENCE": "EFIFRESRKHNV [ERP3 C-terminal 12 aa]", "OBSERVED": 0.728}
{"CONSTRUCT_SEQUENCE": "LAFRAHTMPNAP [ATO3 C-terminal 12 aa]", "OBSERVED": 0.699}
{"CONSTRUCT_SEQUENCE": "ERINFVCETYGL [AIM14 C-terminal 12 aa]", "OBSERVED": 0.7}
{"CONSTRUCT_SEQUENCE": "EDVKEEESKVGA [IOC4 C-terminal 12 aa]", "OBSERVED": 0.691}
{"CONSTRUCT_SEQUENCE": "NYEITPYENVHV [TOS2 C-terminal 12 aa]", "OBSERVED": 0.682}
{"CONSTRUCT_SEQUENCE": "RLQQVRKNPYPF [OPI7 C-terminal 12 aa]", "OBSERVED": 0.736}
{"CONSTRUCT_SEQUENCE": "VISYLLGADIHF [SMF3 C-terminal 12 aa]", "OBSERVED": 0.712}
{"CONSTRUCT_SEQUENCE": "LNFYNDNFGSQF [STP1 C-terminal 12 aa]", "OBSERVED": 0.723}
{"CONSTRUCT_SEQUENCE": "KYNSQKRATTPA [COQ4 C-terminal 12 aa]", "OBSERVED": 0.712}
{"CONSTRUCT_SEQUENCE": "NDTIFKLKVFKL [ILS1 C-terminal 12 aa]", "OBSERVED": 0.735}
{"CONSTRUCT_SEQUENCE": "IEKSKSDRRKLL [YHR022C C-terminal 12 aa]", "OBSERVED": 0.728}
{"CONSTRUCT_SEQUENCE": "NEKRNEPKPSTN [YTA12 C-terminal 12 aa]", "OBSERVED": 0.694}
